- Test Protocol: Metabolic stability in human liver microsomes assessed as hepatic extraction ratio at 1.5 uM preincubated for 5 mins followed by NADPH addition and measured after 10 mins by LC/MS analysis
- Type: ADME, Microsome
- Test Settings: time 15 min, read-out: ERH
Parameter: hepatic extraction ratio at 10 min, 1.5 µM

- Cc1ccc(/C=C/CN2CCN(C(=O)CCC(=O)Nc3ccccc3O)CC2)cc1: 0.759

====

- Test Protocol: Metabolic stability in human plasma assessed as compound remaining at 100 uM incubated for 120 mins by LC/MS analysis
- Format: ADME, cell-free
- Test Settings: read-out: Stability
Parameter: remaining at 2 h, 100 µM (%)

• Cc1ccc(/C=C/CN2CCN(C(=O)CCC(=O)Nc3ccccc3O)CC2)cc1 = 94.6

====

- Test Protocol: Metabolic stability in human liver microsomes assessed as half-life at 1.5 uM preincubated for 5 mins followed by NADPH addition and measured after 10 mins by LC/MS analysis
- Format: ADME, Microsome
- Test Settings: time 15 min
Parameter: half-life at 1.5 µM

• Cc1ccc(/C=C/CN2CCN(C(=O)CCC(=O)Nc3ccccc3O)CC2)cc1 = 24.6 min

====

The following compounds have recorded IC50 on Mushroom tyrosinase (Agaricus bisporus, UniProt O42713+Q00024+C7FF04+C7FF05).
Parameter: IC50

• Cc1ccc(NC(=O)CCC(=O)Nc2cnn(C/C=C/c3ccccc3)c2)c(C)c1 = > 800 µM
• Cc1ccc(NC(=O)CN2CCCN(C/C=C/c3ccccc3)CC2)c(C)c1 = > 800 µM
• Cc1ccc(NC(=O)CCN2CCCN(C/C=C/c3ccccc3)CC2)cc1 = 536.05 µM
• Cc1ccc(/C=C/CN2CCN(C(=O)CCC(=O)Nc3ccccc3C)CC2)cc1 = 204.3 µM
• Cc1ccc(NC(=O)CCCN2CCN(C/C=C/c3ccccc3)CC2)c(C)c1 = > 800 µM
• Cc1ccc(C)c(NC(=O)CCC(=O)N2CCCN(C/C=C/c3ccccc3)CC2)c1 = > 800 µM
• Cc1ccc(NC(=O)CCN2CCCN(C/C=C/c3ccccc3)CC2)cc1C = > 800 µM
• Cc1ccc(NC(=O)CC(=O)N2CCCN(C/C=C/c3ccccc3)CC2)c(C)c1 = > 800 µM
• Cc1cc(C)c(NC(=O)CCN2CCCN(C/C=C/c3ccccc3)CC2)c(C)c1 = > 800 µM
• Cc1ccc(/C=C/CN2CCN(C(=O)CCC(=O)Nc3cccc(O)c3)CC2)cc1 = > 800 µM

====

The following compounds have recorded IC50 on Mushroom tyrosinase (Agaricus bisporus, UniProt O42713+Q00024+C7FF04+C7FF05).
Parameter: IC50 (µM)

• Cc1ccc(C)c(NC(=O)CCN2CCCN(C/C=C/c3ccccc3)CC2)c1 = 234.2
• Cc1ccc(/C=C/CN2CCN(C(=O)CCC(=O)Nc3cccc(O)c3)CC2)cc1 = 217.17
• Cc1ccc(/C=C/CN2CCN(C(=O)CCC(=O)Nc3ccccc3C)CC2)cc1 = 173
• Cc1ccc(/C=C/CN2CCN(C(=O)CCCC(=O)Nc3ccccn3)CC2)cc1 = 192.93
• Cc1ccc(C)c(NC(=O)CCC(=O)N2CCCN(C/C=C/c3ccccc3)CC2)c1 = 393.05
• Cc1ccc(/C=C/CN2CCN(C(=O)CCC(=O)Nc3ccccc3O)CC2)cc1 = 11.49
• Cc1cccc(C)c1NC(=O)CN1CCN(C/C=C/c2ccccc2)CC1 = 88.01
• Cc1ccc(NC(=O)CCCN2CCN(C/C=C/c3ccccc3)CC2)c(C)c1 = 652.9
• Cc1ccc(F)cc1NC(=O)CCN1CCCN(C/C=C/c2ccccc2)CC1 = 639.85

====

- Test Protocol: Metabolic stability in human liver microsomes assessed as intrinsic clearance at 1.5 uM preincubated for 5 mins followed by NADPH addition and measured after 10 mins by LC/MS analysis
- Type: ADME, Microsome
- Test Settings: time 15 min, read-out: CLH
Parameter: CLint scaled at 1.5 µM

* Cc1ccc(/C=C/CN2CCN(C(=O)CCC(=O)Nc3ccccc3O)CC2)cc1 | 65.2 mL/min/kg

====

The following compounds have recorded IC50 on Mushroom tyrosinase (Agaricus bisporus, UniProt O42713+Q00024+C7FF04+C7FF05).
Parameter: IC50

* Cc1ccc(/C=C/CN2CCN(C(=O)CCC(=O)Nc3ccccc3O)CC2)cc1 | 31.01 µM
* Cc1ccc(F)cc1NC(=O)CCN1CCCN(C/C=C/c2ccccc2)CC1 | > 800 µM
* Cc1ccc(NC(=O)CCC(=O)N2CCCN(C/C=C/c3ccccc3)CC2)c(C)c1 | > 800 µM

====

- Test Protocol: Metabolic stability in human plasma assessed as half-life at 100 uM incubated for 120 mins by LC/MS analysis
- Assay type: ADME, cell-free
Parameter: half-life at 100 µM

• Cc1ccc(/C=C/CN2CCN(C(=O)CCC(=O)Nc3ccccc3O)CC2)cc1 = > 120 min

====

- Test Protocol: Metabolic stability in human liver microsomes assessed as compound remaining at 1.5 uM incubated for 45 mins by LC/MS analysis
- Assay type: ADME, Microsome
- Test Settings: read-out: Stability
Parameter: remaining at 0.75 h, 1.5 µM (%)

• Cc1ccc(/C=C/CN2CCN(C(=O)CCC(=O)Nc3ccccc3O)CC2)cc1 = 28.1

====

- Test Target: Mushroom tyrosinase (Agaricus bisporus, UniProt O42713+Q00024+C7FF04+C7FF05)
So basically: is IC50 under 300 µM? Then Condition met. Not under? Then Condition not met.

* Cc1cc(Cl)ccc1NC(=O)CN1CCCN(C/C=C/c2ccccc2)CC1 | Condition not met
* Cc1cccc(C)c1NC(=O)CCCN1CCCN(C/C=C/c2ccccc2)CC1 | Condition not met
* Cc1ccccc1NC(=O)CN1CCCN(C/C=C/c2ccccc2)CC1 | Condition not met
* Cc1ccc(NC(=O)CCN2CCCN(C/C=C/c3ccccc3)CC2)c(C)c1 | Condition not met
* Cc1ccc(C)c(NC(=O)CC(=O)N2CCCN(C/C=C/c3ccccc3)CC2)c1 | Condition not met
* Cc1ccc(C)c(NC(=O)CN2CCCN(C/C=C/c3ccccc3)CC2)c1 | Condition not met
* Cc1ccc(C)c(NC(=O)CCN2CCCN(C/C=C/c3ccccc3)CC2)c1 | Condition not met
* Cc1ccc(/C=C/CN2CCN(C(=O)CCCC(=O)Nc3ccccn3)CC2)cc1 | Condition not met
* Cc1ccc(/C=C/CN2CCN(C(=O)CCC(=O)Nc3ccc(O)cc3)CC2)cc1 | Condition met
* Cc1cccc(C)c1NC(=O)CN1CCN(C/C=C/c2ccccc2)CC1 | Condition met

====

The following compounds have recorded IC50 on Mushroom tyrosinase (Agaricus bisporus, UniProt O42713+Q00024+C7FF04+C7FF05).
Parameter: IC50 (µM)

- Cc1ccc(NC(=O)CCN2CCCN(C/C=C/c3ccccc3)CC2)cc1: 338.4
- Cc1ccc(C)c(NC(=O)CC(=O)N2CCCN(C/C=C/c3ccccc3)CC2)c1: 744.95
- Cc1ccc(/C=C/CN2CCN(C(=O)CCC(=O)Nc3ccc(O)cc3)CC2)cc1: 40.34
- Cc1ccc(NC(=O)CC(=O)N2CCCN(C/C=C/c3ccccc3)CC2)c(C)c1: 732.35
- Cc1ccc(NC(=O)CCN2CCCN(C/C=C/c3ccccc3)CC2)c(C)c1: 255.4
- Cc1cccc(C)c1NC(=O)CCCN1CCCN(C/C=C/c2ccccc2)CC1: 248.7
- Cc1cc(C)c(NC(=O)CCN2CCCN(C/C=C/c3ccccc3)CC2)c(C)c1: 465.1
- Cc1ccc(NC(=O)CCC(=O)N2CCCN(C/C=C/c3ccccc3)CC2)c(C)c1: 681.3

The reported numbers originate from ChEMBL document CHEMBL5506021.
